Test system: LOX IMVI melanoma
Experiment: NCI tumour cell line growth inhibition, 48 h
Assay Metric: TGI

Molecule	Result
COCn1c(C)c(C)c2c(=O)oc(C)nc21	> 100 µM
CCCCCCCCCCCCCCNCC(OCC)OCC	32.5 µM
COC(=O)C(=O)C(CC(=O)Nc1cccc(C(F)(F)F)c1)C(=O)OC (configuration not stated)	> 100 µM
O=c1[nH]c(=O)n2n1C1C=CC2CC1	> 100 µM
Brc1ccc(C2SCc3nc4ccccc4n32)cc1 (configuration not stated)	21 µM
O=C1CCC2(c3ccccc3)Nc3ccc(Cl)cc3N12 (configuration not stated)	> 100 µM
N#C/C(=C\c1cccc2cnccc12)N1N=NC2C=CC=CC21 (configuration not stated)	> 100 µM

----------
Test system: RPMI-8226 leukemia
Test: NCI tumour cell line growth inhibition, 48 h
Assay Metric: TGI

Line Notation	Tgt	Assay Metric	Result
COCn1c(C)c(C)c2c(=O)oc(C)nc21	RPMI-8226 leukemia	TGI	> 100 µM
Cc1nc2ccccc2c(=O)n1/N=C/c1ccc(N(C)C)cc1	RPMI-8226 leukemia	TGI	> 100 µM
Cc1nc2ccccc2n1Cc1nnc2n1N=C(c1ccccc1)CS2	RPMI-8226 leukemia	TGI	> 100 µM
